system: RAW-Dual; test: NF-kB SEAP reporter activity, fold change vs agonist alone; cytotoxicity flag (confluency mask): not cytotoxic; higher = enhanced NF-kB activity; conditions: agonist: Pam2CSK4 (TLR2/6) 0.1 ug/mL
Whole data set: some 2,900 compounds, median “NF-kB SEAP reporter activity, fold change vs agonist alone” near 0.99, cut for the highest 2% near 2.6. Only a selection was taken, and the highest values are over-represented in it overall.
measured_attribute: NF-kB SEAP reporter activity

Before answering, review these 6 worked examples.
COCc1ccc(-c2ccc3ncc(C(N)=O)c(NC(C)C4CCOCC4)c3c2)cn1 (configuration not stated) (library stock concentration (final ~1000-fold dilution): 10 mM): 1.45
COc1cc(-c2cc(-c3cccc(O)c3)cnc2N)cc(OC)c1OC (library stock concentration (final ~1000-fold dilution): 10 mM): 1.09
COc1cc(N2CCC(N(C)C)CC2)ccc1Nc1ncc(Cl)c(Nc2ccccc2P(C)(C)=O)n1 (library stock concentration (final ~1000-fold dilution): 10 mM): 1.03
CCN(CC)Cc1ccc(C(=O)N(CCc2ccccc2OC)C2CCNC2)cc1 (configuration not stated) (library stock concentration (final ~1000-fold dilution): 10 mM): 0.883
Cc1[nH]nc(C(F)(F)F)c1Cc1sc2c(c1C(=O)N1CC(C)(O)CO1)c(=O)n(C)c(=O)n2C(C)C (configuration not stated) (library stock concentration (final ~1000-fold dilution): 10 mM): 0.918
CN1CCc2c(c3ccccc3n2Cc2ccc(C(=O)NO)cc2)C1 (library stock concentration (final ~1000-fold dilution): 10 mM): 0.779

I have 6 compounds here; please give me NF-kB SEAP reporter activity for each one.
1. N#CC1CC2CC2N1C(=O)C(N)C12CC3CC(CC(O)(C3)C1)C2 (configuration not stated) (library stock concentration (final ~1000-fold dilution): 10 mM)
2. CC(C)n1cnc2c(NCCc3ccc(O)cc3)nc(-c3csc4ccccc34)nc21 (library stock concentration (final ~1000-fold dilution): 10 mM)
3. COc1cc(-c2cc(-c3ccc(N4CCNCC4)cc3)cnc2C)cc(OC)c1OC (library stock concentration (final ~1000-fold dilution): 10 mM)
4. C=CC(=O)Nc1cccc(Sc2nc(Nc3ccc(N4CCN(C)CC4)cc3)ncc2Cl)c1 (library stock concentration (final ~1000-fold dilution): 10 mM)
5. CC(C)(CNC(=O)c1cccc(-c2noc(C(F)(F)F)n2)c1)c1coc(-c2ccccc2)n1 (library stock concentration (final ~1000-fold dilution): 10 mM)
6. CCOC(=O)C1=CCCCC1S(=O)(=O)Nc1ccc(F)cc1Cl (configuration not stated) (library stock concentration (final ~1000-fold dilution): .1 mM)

result:
[0.892, 0.535, 1.29, 0.0814, 0.625, 1.36]

I have 7 compounds here; please give me NF-kB SEAP reporter activity for each one.
1. COc1cc(N2CCC(N3CCN(C)CC3)CC2)ccc1Nc1ncc(Cl)c(Nc2ccccc2P(C)(C)=O)n1 (library stock concentration (final ~1000-fold dilution): 2 mM)
2. COc1cc(N2CCC(N3CCN(C)CC3)CC2)ccc1Nc1ncc(Cl)c(Nc2ccccc2S(=O)(=O)C(C)C)n1 (library stock concentration (final ~1000-fold dilution): 2 mM)
3. CN1CCc2c(c3ccccc3n2Cc2ccc(C(=O)NO)cc2)C1.Cl (library stock concentration (final ~1000-fold dilution): 10 mM)
4. CC(C)CCNC(=O)C(CC(C)C)NC(=O)C1OC1C(=O)O (configuration not stated) (library stock concentration (final ~1000-fold dilution): 10 mM)
5. CC#Cc1cncc(-c2ccc3c(c2)C2(N=C(C)C(N)=N2)C2(CCC(OC)CC2)C3)c1 (configuration not stated) (library stock concentration (final ~1000-fold dilution): 10 mM)
6. CCn1c2ccccc2c2cc(-n3nncc3-c3ccccc3)ccc21 (library stock concentration (final ~1000-fold dilution): 10 mM)
7. Cc1ccc(C(=O)N(CCCN)C(c2oc3cc(Cl)ccc3c(=O)c2Cc2ccccc2)C(C)C)cc1.Cl (configuration not stated) (library stock concentration (final ~1000-fold dilution): 10 mM)

result:
1: 1.28; 2: 0.757; 3: 1.08; 4: 1; 5: 0.809; 6: 1.81; 7: 0.344

I have 3 compounds here; please give me NF-kB SEAP reporter activity for each one.
1. CC1(F)C(O)C(CO)OC1n1ccc(=O)[nH]c1=O (configuration not stated) (library stock concentration (final ~1000-fold dilution): 10 mM)
2. O=C(Nc1nccs1)C(c1cc(F)ccc1O)N1Cc2ccccc2C1=O (configuration not stated) (library stock concentration (final ~1000-fold dilution): 10 mM)
3. CC(C)C(CO)Nc1nc(Nc2cccc(Cl)c2)c2ncn(C(C)C)c2n1 (configuration not stated) (library stock concentration (final ~1000-fold dilution): 10 mM)

result:
[0.82, 0.865, 1.22]
